studyTarget: TNF-alpha (Homo sapiens, UniProt P01375 P01375:77-233)
Sequence (P01375 77-233, one chain of several): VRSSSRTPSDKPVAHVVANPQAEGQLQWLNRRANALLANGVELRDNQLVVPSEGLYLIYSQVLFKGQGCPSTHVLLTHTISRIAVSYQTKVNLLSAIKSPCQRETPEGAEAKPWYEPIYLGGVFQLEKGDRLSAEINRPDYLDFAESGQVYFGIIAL
assayRemarks: FP; no value shown, Kd above 1 uM per footnote; filter binding, DPBS
conditionParameters: tags: Genzyme or R&D Systems; chain copies: 3
pKd: −log10 of the molar value.

- binder: "TNF 12A (ssRNA) RNA: GGGAGCUCAGAAUAAACGCUCAACUUCUUGGCCCCGUCUCAAUGUCCGUACUUCUUCGACAUGAGGCCCGGAUCCGGC"
  pKd: "< 6.00"
